- SYSTEM_TESTED: T1, human Natriuretic Peptide Receptor 1 (hNPR1) (human, UniProt P16066 33-473, limits assumed)
- T1 construct: pannings used NPR1-hFc; also called NPR1-hFc
- T1 sequence: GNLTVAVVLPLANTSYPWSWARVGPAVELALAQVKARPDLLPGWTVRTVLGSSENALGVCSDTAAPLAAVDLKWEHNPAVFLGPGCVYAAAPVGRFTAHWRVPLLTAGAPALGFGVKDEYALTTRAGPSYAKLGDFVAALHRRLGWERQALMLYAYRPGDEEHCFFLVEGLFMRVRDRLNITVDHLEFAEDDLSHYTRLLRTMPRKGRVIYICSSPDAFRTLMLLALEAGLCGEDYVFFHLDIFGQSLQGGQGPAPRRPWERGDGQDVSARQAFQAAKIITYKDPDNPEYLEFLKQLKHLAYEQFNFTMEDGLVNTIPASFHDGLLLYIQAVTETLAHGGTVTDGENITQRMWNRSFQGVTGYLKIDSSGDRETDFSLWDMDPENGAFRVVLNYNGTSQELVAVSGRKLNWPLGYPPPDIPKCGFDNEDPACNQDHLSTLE
- TEST_METHOD_NOTES: SET, FabCys
Record form. Attribute: pKd. Fill in for each entry.
Schema: pKd number; meaning minus log10 of the concentration expressed in molar units.

Q: State its pKd: ZZ05 (FabCys format) (Fab, V domains shown, Monovalent FabCys) VH: EVQLVQSGAEVKKPGESLKISCKGSGYSFTSYWISWVRQMPGKGLEWMGIIYPGTSYTRYSPSFQGQVTISADKSISTAYLQWSSLKASDTAMYYCARGSLPGLLGFDHWGQGTLVTVSS VL: QSVLTQPPSVSGAPGQRVTISCTGSSSNIGAGYDVHWYQQLPGTAPKLLIYGNSNRPNGVPDRFSGSKSGTSASLAITGLQAEDEADYYCQSYGAFPRFVVFGGGTKLTVL
Ans: 9.13

Q: State its pKd: ZZ12 (FabCys format) (Fab, V domains shown, Monovalent FabCys) VH: EVQLVESGGGLVQPGGSLRLSCAASGFSFSKYYLNWVRQAPGKGLEWVASIHQQAHEKKYVESVKGRFTISRDNAKNSLYLQMNSLRAEDTAVYYCARSLRRRSTEHAGFDVWGQGTLVTVSS VL: DIQMTQSPSSLSASVGDRVTITCRASQGISNYLAWYQQKPGKVPKLLIYAASTLQSGVPSRFSGSGSGTDFTLTISSLQPEDVATYYCQQADKFPYTFGQGTKVEIK
Ans: 8.17

Q: State its pKd: ZZ16 (FabCys format) (Fab, V domains shown, Monovalent FabCys) VH: EVQLLESGGGLVQPGGSLRLSCAASGFTFGTYAMTWVRQAPGKGLEWVSSISASGYYANYAGSVKGRFTISRDNSKNTLYLQMNSLRAEDTAVYYCARPYLGDRRSYGFDHWGQGTLVTVSS VL: QSALTQPASVSGSPGQSITISCTGTSSDVGSYNLVSWYQQHPGKAPKLMIYEGSKRPSGVSNRFSGSKSGNTASLTISGLQAEDEADYYCSSYGFHIVVVVFGGGTKLTVL
Ans: 10.40

Q: State its pKd: ZZ13 (FabCys format) (Fab, V domains shown, Monovalent FabCys) VH: EVQLVESGGGLVQPGGSLRLSCAASGFTFSRYYINWVRQAPGKGLEWVASIHQHGLETRYVESVKGRFTISRDNAKNSLYLQMNSLRAEDTAVYYCARSLRRRSTEHAGFDVWGQGTLVTVSS VL: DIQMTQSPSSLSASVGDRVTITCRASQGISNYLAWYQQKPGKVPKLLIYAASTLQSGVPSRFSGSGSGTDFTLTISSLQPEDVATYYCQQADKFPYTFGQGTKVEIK
Ans: 8.00
